Target: Phosphodiesterase 7 (Homo sapiens, UniProt Q13946+Q9NP56)
Assay: Inhibition of PDE7 catalytic domain (unknown origin) using [3H]-cAMP as substrate after 1 hr by scintillation proximity assay
Type: protein assay
quantity name: IC50 (µM)

A: COC(=O)c1ccc(-c2ccc(CSc3nc(C(C)C)nc4ccccc34)cc2)cc1
B: Cc1nc(SCc2ccc(-c3ccccc3-c3nn[nH]n3)cc2)c2ccccc2n1
Of A versus B , which is the one with smaller reported IC50? Give the label under which the chosen entry appears.
B

---

Target: Phosphodiesterase 7 (Homo sapiens, UniProt Q13946+Q9NP56)
Experiment: Inhibition of PDE7 catalytic domain (unknown origin) using [3H]-cAMP as substrate after 1 hr by scintillation proximity assay
Format: protein assay
quantity name: IC50 (µM)

INSERT INTO results (smiles_notation, measurement_target, quantity_name, measured_number) VALUES
  ('O=[N+]([O-])c1ccc(CSc2nc(SCc3ccc(-c4ccccc4-c4nnn[nH]4)cc3)c3ccccc3n2)cc1', 'Phosphodiesterase 7 (Homo sapiens, UniProt Q13946+Q9NP56)', 'IC50', 4.9),
  ('Cc1nc(SCc2ccc(-c3ccc(-c4nnn[nH]4)cc3)cc2)c2ccccc2n1', 'Phosphodiesterase 7 (Homo sapiens, UniProt Q13946+Q9NP56)', 'IC50', 8);

I: COc1cccc(CSc2nc(SCc3ccc(-c4ccccc4-c4nnn[nH]4)cc3)c3ccccc3n2)c1
II: CC(C)c1nc(SCc2ccc(-c3ccccc3C(=O)O)cc2)c2ccccc2n1
Compare I and II and name the one whose reported IC50 is smaller. Respond using the label that marks the chosen record.
I
(I: 3.3 µM, II: 44 µM)

---

Target: Phosphodiesterase 7 (Homo sapiens, UniProt Q13946+Q9NP56)
Assay: Inhibition of PDE7 catalytic domain (unknown origin) using [3H]-cAMP as substrate after 1 hr by scintillation proximity assay
Assay type: protein assay
quantity name: IC50 (µM)

Look over these answered cases.
INSERT INTO measurements (smiles_notation, unit_annotation, measured_number) VALUES
  ('ClC(Cl)(Cl)c1nc(SCc2ccc(-c3ccccc3-c3nnn[nH]3)cc2)c2ccccc2n1', 'µM', 2.6),
  ('CC(C)c1nc(SCc2ccc(-c3cccc(-c4nnn[nH]4)c3)cc2)c2ccccc2n1', 'µM', 0.89),
  ('c1ccc(CSc2nc(SCc3ccc(-c4ccccc4-c4nnn[nH]4)cc3)c3ccccc3n2)cc1', 'µM', 7.1),
  ('c1cc(-c2ccc(CSc3ncnc4ccccc34)cc2)cc(-c2nnn[nH]2)c1', 'µM', 8.2),
  ('CC(C)c1nc(SCc2ccc(-c3ccccc3-c3nn[nH]n3)cc2)c2ccccc2n1', 'µM', 0.77);

P: CC(C)c1nc(SCc2ccc(-c3cccc(C(=O)O)c3)cc2)c2ccccc2n1
Q: c1ccc2c(SCc3ccc(-c4ccc(-c5nnn[nH]5)cc4)cc3)ncnc2c1
R: COc1cc2c(SCc3ccc(-c4ccccc4-c4nnn[nH]4)cc3)nc(CCc3ccccc3)nc2c(OC)c1OC
S: Clc1ccc(-c2nc(SCc3ccc(-c4ccccc4-c4nnn[nH]4)cc3)c3ccccc3n2)cc1
T: Cc1nc(SCc2ccc(-c3cccc(-c4nnn[nH]4)c3)cc2)c2ccccc2n1
Hello, I need these entries ordered by IC50, highest reading first. Thanks! Use the labels to give the requested order.
S, Q, R, T, P
(S: 12 µM, Q: 7.2 µM, R: 3.6 µM, T: 2.5 µM, P: 0.85 µM)

1: CC(C)c1nc(SCc2ccc(-c3ccc(C(=O)O)cc3)cc2)c2ccccc2n1
2: Fc1ccc(CSc2nc(SCc3ccc(-c4ccccc4-c4nnn[nH]4)cc3)c3ccccc3n2)cc1
Could you tell me which of these two has the smaller IC50 figure? First: 1 Second: 2 When you have decided, please share the label of that item.
1
